Hello, the source for this data is the supplement of paper PMC5998384, in case you need it.

# Tested on: HeLa Kyoto
# assay_explanation: thermal stability score vs G1/S (z-score of summed log2 fold changes over temperatures); higher = more thermally stable than in G1/S
# experimental_parameters: cell cycle stage: early G1 (4.5 h after nocodazole release)
endpoint: thermal stability score
Kindly provide the number alone.

Find the measured thermal stability score of MALVHKLLRGTYFLRKFSKPTSALYPFLGIRFAEYSSSLQKPVASPGKASSQRKTEGDLQGDHQKEVALDITSSEEKPDVSFDKAIRDEAIYHFRLLKDEIVDHWRGPEGHPLHEVLLEQAKVVWQFRGKEDLDKWTVTSDKTIGGRSEVFLKMGKNNQSALLYGTLSSEAPQDGESTRSGYCAMISRIPRGAFERKMSYDWSQFNTLYLRVRGDGRPWMVNIKEDTDFFQRTNQMYSYFMFTRGGPYWQEVKIPFSKFFFSNRGRIRDVQHELPLDKISSIGFTLADKVDGPFFLEIDFIGVFTDPAHTEEFAYENSPELNPRLFK [NDUFAF1] with HeLa Kyoto as test system. 4.31

----------
# Test system: HeLa Kyoto
# assay_explanation: melting temperature (median over replicates), in situ; higher = more thermally stable
# experimental_parameters: cell cycle stage: mitosis
Provide the reported melting temperature of each item.
Number in °C, nothing else.

Determine from records and report melting temperature for MRRAGLGEGVPPGNYGNYGYANSGYSACEEENERLTESLRSKVTAIKSLSIEIGHEVKTQNKLLAEMDSQFDSTTGFLGKTMGKLKILSRGSQTKLLCYMMLFSLFVFFIIYWIIKLR [BET1] 54.9

Consider the sequence MELTIFILRLAIYILTFPLYLLNFLGLWSWICKKWFPYFLVRFTVIYNEQMASKKRELFSNLQEFAGPSGKLSLLEVGCGTGANFKFYPPGCRVTCIDPNPNFEKFLIKSIAENRHLQFERFVVAAGENMHQVADGSVDVVVCTLVLCSVKNQERILREVCRVLRPGGAFYFMEHVAAECSTWNYFWQQVLDPAWHLLFDGCNLTRESWKALERASFSKLKLQHIQAPLSWELVRPHIYGYAVK [METTL7A] . State its measured melting temperature. 56.8

Please give the documented melting temperature of MAAAGAFRLRRAASALLLRSPRLPARELSAPARLYHKKVVDHYENPRNVGSLDKTSKNVGTGLVGAPACGDVMKLQIQVDEKGKIVDARFKTFGCGSAIASSSLATEWVKGKTVEEALTIKNTDIAKELCLPPVKLHCSMLAEDAIKAALADYKLKQEPKKGEAEKK [ISCU] 54

Specify melting temperature for MYTAIPQSGSPFPGSVQDPGLHVWRVEKLKPVPVAQENQGVFFSGDSYLVLHNGPEEVSHLHLWIGQQSSRDEQGACAVLAVHLNTLLGERPVQHREVQGNESDLFMSYFPRGLKYQEGGVESAFHKTSTGAPAAIKKLYQVKGKKNIRATERALNWDSFNTGDCFILDLGQNIFAWCGGKSNILERNKARDLALAIRDSERQGKAQVEIVTDGEEPAEMIQVLGPKPALKEGNPEEDLTADKANAQAAALYKVSDATGQMNLTKVADSSPFALELLISDDCFVLDNGLCGKIYIWKGRKANEKERQAALQVAEGFISRMQYAPNTQVEILPQGHESPIFKQFFKDWK [CAPG] and stop. 50.3

----------
# System: HeLa Kyoto
# assay_explanation: solubility in G1/S (NP-40 vs SDS abundance) (log2 ratio); higher = more soluble
# experimental_parameters: cell cycle stage: G1/S
Field: solubility in G1/S (log2). Provide a value for each of the sequences that follow.
Answer with a number only.

Print HeLa Kyoto solubility in G1/S (log2) for MRPLTEEETRVMFEKIAKYIGENLQLLVDRPDGTYCFRLHNDRVYYVSEKIMKLAANISGDKLVSLGTCFGKFTKTHKFRLHVTALDYLAPYAKYKVWIKPGAEQSFLYGNHVLKSGLGRITENTSQYQGVVVYSMADIPLGFGVAAKSTQDCRKVDPMAIVVFHQADIGEYVRHEETLT [NIP7] . -1.97

Please report solubility in G1/S (log2) with HeLa Kyoto for item MTELQSALLLRRQLAELNKNPVEGFSAGLIDDNDLYRWEVLIIGPPDTLYEGGVFKAHLTFPKDYPLRPPKMKFITEIWHPNVDKNGDVCISILHEPGEDKYGYEKPEERWLPIHTVETIMISVISMLADPNGDSPANVDAAKEWREDRNGEFKRKVARCVRKSQETAFE [UBE2G1] . 0.543

Provide solubility in G1/S (log2), recorded with HeLa Kyoto, of MASLEVSRSPRRSRRELEVRSPRQNKYSVLLPTYNERENLPLIVWLLVKSFSESGINYEIIIIDDGSPDGTRDVAEQLEKIYGSDRILLRPREKKLGLGTAYIHGMKHATGNYIIIMDADLSHHPKFIPEFIRKQKEGNFDIVSGTRYKGNGGVYGWDLKRKIISRGANFLTQILLRPGASDLTGSFRLYRKEVLEKLIEKCVSKGYVFQMEMIVRARQLNYTIGEVPISFVDRVYGESKLGGNEIVSFLKGLLTLFATT [DPM1] -0.0525

Print HeLa Kyoto solubility in G1/S (log2) for MNSGRPETMENLPALYTIFQGEVAMVTDYGAFIKIPGCRKQGLVHRTHMSSCRVDKPSEIVDVGDKVWVKLIGREMKNDRIKVSLSMKVVNQGTGKDLDPNNVIIEQEERRRRSFQDYTGQKITLEAVLNTTCKKCGCKGHFAKDCFMQPGGTKYSLIPDEEEEKEEAKSAEFEKPDPTRNPSRKRKKEKKKKKHRDRKSSDSDSSDSESDTGKRARHTSKDSKAAKKKKKKKKHKKKHKE [ZCCHC17] . -1.32

Enter measured solubility in G1/S (log2), system HeLa Kyoto, for the sequence shown: MASRGATRPNGPNTGNKICQFKLVLLGESAVGKSSLVLRFVKGQFHEFQESTIGAAFLTQTVCLDDTTVKFEIWDTAGQERYHSLAPMYYRGAQAAIVVYDITNEESFARAKNWVKELQRQASPNIVIALSGNKADLANKRAVDFQEAQSYADDNSLLFMETSAKTSMNVNEIFMAIAKKLPKNEPQNPGANSARGRGVDLTEPTQPTRNQCCSN [RAB5A] 0.00572

Specify the recorded solubility in G1/S (log2) for MDTGVIEGGLNVTLTIRLLMHGKEVGSIIGKKGESVKKMREESGARINISEGNCPERIITLAGPTNAIFKAFAMIIDKLEEDISSSMTNSTAASRPPVTLRLVVPASQCGSLIGKGGCKIKEIRESTGAQVQVAGDMLPNSTERAITIAGIPQSIIECVKQICVVMLETLSQSPPKGVTIPYRPKPSSSPVIFAGGQDRYSTGSDSASFPHTTPSMCLNPDLEGPPLEAYTIQGQYAIPQPDLTKLHQLAMQQSHFPMTHGNTGFSGIESSSPEVKGYWGLDASAQTTSHELTIPNDLIGCIIGRQGAKINEIRQMSGAQIKIANPVEGSTDRQVTITGSAASISLAQYLINVRLSSETGGMGSS [PCBP2] , system: HeLa Kyoto. 0.222
